I'd be grateful if you could share measured IC50 for these entries.
measurement.target: mutant G2019S LRRK2 (Homo sapiens (Human), UniProt Q5S007, G2019S)
Sequence (Q5S007 970-2527 G2019S): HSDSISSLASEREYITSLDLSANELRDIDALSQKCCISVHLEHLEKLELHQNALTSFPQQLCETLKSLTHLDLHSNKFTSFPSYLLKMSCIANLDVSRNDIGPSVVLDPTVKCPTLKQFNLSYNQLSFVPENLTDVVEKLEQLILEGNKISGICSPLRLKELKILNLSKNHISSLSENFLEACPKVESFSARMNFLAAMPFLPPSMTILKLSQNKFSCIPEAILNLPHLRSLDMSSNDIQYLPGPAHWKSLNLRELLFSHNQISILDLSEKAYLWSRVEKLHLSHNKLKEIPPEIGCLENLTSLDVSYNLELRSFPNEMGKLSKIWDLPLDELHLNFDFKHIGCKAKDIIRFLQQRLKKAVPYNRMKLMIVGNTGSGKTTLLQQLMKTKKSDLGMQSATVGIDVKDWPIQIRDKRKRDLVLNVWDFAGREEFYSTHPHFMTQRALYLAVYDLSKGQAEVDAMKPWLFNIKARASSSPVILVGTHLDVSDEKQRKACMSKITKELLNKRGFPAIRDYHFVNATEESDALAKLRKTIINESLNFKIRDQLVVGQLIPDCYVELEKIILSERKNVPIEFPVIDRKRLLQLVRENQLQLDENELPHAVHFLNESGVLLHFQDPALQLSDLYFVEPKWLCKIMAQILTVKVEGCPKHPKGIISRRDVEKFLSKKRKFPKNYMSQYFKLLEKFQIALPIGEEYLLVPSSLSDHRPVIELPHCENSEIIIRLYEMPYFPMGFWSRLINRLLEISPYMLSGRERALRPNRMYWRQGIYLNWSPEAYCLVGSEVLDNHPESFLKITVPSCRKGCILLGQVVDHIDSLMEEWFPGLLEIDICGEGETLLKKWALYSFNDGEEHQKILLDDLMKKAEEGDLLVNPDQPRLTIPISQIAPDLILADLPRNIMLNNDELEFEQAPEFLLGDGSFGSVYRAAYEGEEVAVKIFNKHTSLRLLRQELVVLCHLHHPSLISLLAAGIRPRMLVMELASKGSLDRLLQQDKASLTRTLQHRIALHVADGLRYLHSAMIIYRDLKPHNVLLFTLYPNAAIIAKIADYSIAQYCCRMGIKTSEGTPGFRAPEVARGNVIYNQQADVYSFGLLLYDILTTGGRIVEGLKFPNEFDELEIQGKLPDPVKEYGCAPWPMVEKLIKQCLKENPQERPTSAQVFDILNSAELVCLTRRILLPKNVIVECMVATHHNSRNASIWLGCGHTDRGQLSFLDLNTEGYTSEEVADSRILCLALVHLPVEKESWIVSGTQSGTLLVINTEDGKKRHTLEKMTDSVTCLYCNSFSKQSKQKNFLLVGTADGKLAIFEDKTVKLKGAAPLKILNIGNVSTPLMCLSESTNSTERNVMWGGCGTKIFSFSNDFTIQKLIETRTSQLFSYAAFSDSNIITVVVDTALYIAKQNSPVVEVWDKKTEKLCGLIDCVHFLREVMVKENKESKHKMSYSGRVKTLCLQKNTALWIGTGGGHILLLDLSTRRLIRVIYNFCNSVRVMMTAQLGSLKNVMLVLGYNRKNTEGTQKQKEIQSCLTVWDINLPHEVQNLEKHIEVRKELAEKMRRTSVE
protocol.description: LRRK2 kinase assay (Lantha Screen), mutant G2019S
conditions.used: 100 nM LRRKtide, 1 mM ATP, 2 μg/mL enzyme; single determination unless otherwise indicated
Dear colleague, please return just the value in nM, with no unit written.

Provide only the value of recorded IC50 for C[C@@H]1C[C@H](n2c([C@H]3CCOC3)nc3cnc4ccc(C(F)(F)F)cc4c32)CCO1 5.71

Return value of IC50 for input N#CC[C@@H]1C[C@H](n2c3c(cnc4ccc(Cl)cc43)nc2[C@H]2CC[C@@H](F)CC2)CCO1 , no commentary. 5.12

Assign IC50 to the following record: CN1CC[C@@H](n2c3c(cnc4ccc(C#N)cc43)nc2[C@H]2C[C@@](C)(F)C2)C1 36.5

Supply measured IC50 of CN1CC[C@@H](n2c3c(cnc4ccc(C#N)cc43)nc2[C@H]2CC[C@@H](F)CC2)C1 in your reply. 33

# return recorded IC50 for entry N#CC[C@@H]1C[C@H](n2c3c(cnc4ccc(F)cc43)nc2[C@H]2CC[C@@H](F)CC2)CCO1 4.63

In one line, give reported IC50 of the entry N#CC[C@@H]1C[C@H](n2c(C3CC(F)(F)C3)nc3cnc4ccc(Cl)cc4c32)CCO1 (single isomer, unassigned) . 12.2

Write down IC50 measured for item CC1(C)CC(n2c(C3CCC(F)C3)nc3cnc4ccc(C#N)cc4c32)CCO1 (centres unmarked) [Example 39] 4.41

For the molecule CN1CC[C@@H](n2c(C3CCC(F)C3)nc3cnc4ccc(F)cc4c32)C1 (some centres unmarked) , give its reported IC50. 77
